System under test: RPS6KA5 KD1 (human) (UniProt O75582)
Sequence (O75582 whole entry, looked up): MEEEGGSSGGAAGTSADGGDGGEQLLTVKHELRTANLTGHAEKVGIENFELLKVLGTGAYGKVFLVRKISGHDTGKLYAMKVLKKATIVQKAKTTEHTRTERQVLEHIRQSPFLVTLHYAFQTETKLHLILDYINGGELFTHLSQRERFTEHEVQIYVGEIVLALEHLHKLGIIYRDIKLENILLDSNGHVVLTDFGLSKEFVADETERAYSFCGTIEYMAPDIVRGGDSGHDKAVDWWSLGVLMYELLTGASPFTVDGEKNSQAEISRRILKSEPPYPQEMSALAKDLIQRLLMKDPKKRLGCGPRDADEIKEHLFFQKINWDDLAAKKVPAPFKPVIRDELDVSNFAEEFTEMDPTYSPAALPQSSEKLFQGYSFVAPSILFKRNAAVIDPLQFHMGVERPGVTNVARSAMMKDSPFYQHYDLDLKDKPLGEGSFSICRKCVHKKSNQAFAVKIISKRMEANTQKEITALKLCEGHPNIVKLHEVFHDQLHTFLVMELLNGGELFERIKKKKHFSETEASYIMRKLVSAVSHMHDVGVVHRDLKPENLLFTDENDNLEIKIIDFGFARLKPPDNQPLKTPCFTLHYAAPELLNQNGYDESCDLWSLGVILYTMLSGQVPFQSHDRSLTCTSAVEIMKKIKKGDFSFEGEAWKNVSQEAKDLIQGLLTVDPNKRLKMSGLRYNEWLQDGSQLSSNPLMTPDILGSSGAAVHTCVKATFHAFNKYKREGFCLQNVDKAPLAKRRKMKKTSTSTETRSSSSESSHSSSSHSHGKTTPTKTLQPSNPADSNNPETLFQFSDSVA
Measurement protocol: split-luciferase competition binding
Settings: compound 10.0 µM
Readout label: inhibition (%)
Value expressed in %; do not type the unit.

inhibition on RPS6KA5 KD1 (human) (UniProt O75582) for CN(C)CCCn1cc(C2=C(c3c[nH]c4ccccc34)C(=O)NC2=O)c2ccccc21 is 39

inhibition on RPS6KA5 KD1 (human) (UniProt O75582) for Cc1cc2nc3c(=O)[nH]c(=O)nc-3n(C)c2cc1C=O is 8

inhibition on RPS6KA5 KD1 (human) (UniProt O75582) for N#C/C(=C\c1ccc(O)c(O)c1)C(N)=S is 0

inhibition on RPS6KA5 KD1 (human) (UniProt O75582) for COc1cc(CC2C(=O)OC[C@@H]2Cc2ccc(OC)c(OC)c2)ccc1O (stereo partly drawn) is 0

inhibition on RPS6KA5 KD1 (human) (UniProt O75582) for Cn1cnc2c(NCc3ccccc3)nc(NCCO)nc21 is 0

inhibition on RPS6KA5 KD1 (human) (UniProt O75582) for COc1cc2ncn(-c3cc(OCc4ccccc4C(F)(F)F)c(C(N)=O)s3)c2cc1OC is 0

inhibition on RPS6KA5 KD1 (human) (UniProt O75582) for O=S(=O)(c1cccc2c(O)nccc12)N1CCCNCC1 is 0

inhibition on RPS6KA5 KD1 (human) (UniProt O75582) for Nc1ncnc2[nH]nc(Nc3ccc(F)cc3)c12 is 0

inhibition on RPS6KA5 KD1 (human) (UniProt O75582) for Cn1cc(C2=C(c3cn(CCCSC(=N)N)c4ccccc34)C(=O)NC2=O)c2ccccc21 is 64

inhibition on RPS6KA5 KD1 (human) (UniProt O75582) for O=S(=O)(NCCNC/C=C/c1ccc(Br)cc1)c1cccc2cnccc12 is 0

inhibition on RPS6KA5 KD1 (human) (UniProt O75582) for O=C1NC(=O)c2c1c1c3ccccc3n3c1c1c2c2ccccc2n1C1CCC3O1 is 73

inhibition on RPS6KA5 KD1 (human) (UniProt O75582) for CCN(CC)CCCCN1c2ccccc2Oc2ccc(Cl)cc21 is 0

inhibition on RPS6KA5 KD1 (human) (UniProt O75582) for COc1cc2ncnc(Nc3ccc(Cl)cc3F)c2cc1OC is 0

inhibition on RPS6KA5 KD1 (human) (UniProt O75582) for COc1cc2ncnc(Nc3ccc(F)c(Cl)c3)c2cc1OCCCN1CCOCC1 is 0

inhibition on RPS6KA5 KD1 (human) (UniProt O75582) for Brc1c(Br)c(Br)c2[nH]nnc2c1Br is 0

inhibition on RPS6KA5 KD1 (human) (UniProt O75582) for CN1CCC(Nc2ncc3ncnc(Nc4ccc(F)c(Cl)c4)c3n2)CC1 is 0

inhibition on RPS6KA5 KD1 (human) (UniProt O75582) for Fc1ccc(Cl)cc1-c1nc(Nc2ccncc2)c2nccnc2n1 is 24

inhibition on RPS6KA5 KD1 (human) (UniProt O75582) for O=C(Nc1cc(C(F)(F)F)cc(C(F)(F)F)c1)c1cc(Cl)ccc1O is 0

inhibition on RPS6KA5 KD1 (human) (UniProt O75582) for CS(=O)c1ccc(-c2nc(-c3ccc(F)cc3)c(-c3ccncc3)[nH]2)cc1 (stereo not drawn) is 0

inhibition on RPS6KA5 KD1 (human) (UniProt O75582) for O=S(=O)(c1cccc2cnccc12)N1CCCNCC1 is 0

inhibition on RPS6KA5 KD1 (human) (UniProt O75582) for CC(C)[C@H](CO)Nc1nc(Nc2ccc(C(=O)O)c(Cl)c2)c2ncn(C(C)C)c2n1 is 0

inhibition on RPS6KA5 KD1 (human) (UniProt O75582) for CC1=C(O)C(=O)[C@@H]2OC2C1=O (stereo partly drawn) is 2

inhibition on RPS6KA5 KD1 (human) (UniProt O75582) for NC(=O)c1ccc(-c2nc(-c3ccccn3)c(-c3ccc4c(c3)OCCO4)[nH]2)cc1 is 2

inhibition on RPS6KA5 KD1 (human) (UniProt O75582) for Cc1ccccc1C(=O)c1ccc(Nc2ccc(Br)cc2N)cc1Cl is 0

inhibition on RPS6KA5 KD1 (human) (UniProt O75582) for CC(C)(C)n1nc(-c2ccc(Cl)cc2)c2c(N)ncnc21 is 1

inhibition on RPS6KA5 KD1 (human) (UniProt O75582) for CC(=O)c1c(O)c(C)c(O)c(Cc2c(O)c3c(c(C(=O)/C=C/c4ccccc4)c2O)OC(C)(C)C=C3)c1O is 0

inhibition on RPS6KA5 KD1 (human) (UniProt O75582) for O=c1cc(N2CCOCC2)nc2c3ccccc3ccn12 is 0

inhibition on RPS6KA5 KD1 (human) (UniProt O75582) for Cc1cc(F)c(Nc2ncnc3cc(OCc4ccccc4)ccc23)cc1O is 0

inhibition on RPS6KA5 KD1 (human) (UniProt O75582) for CC(C)(C)n1nc(-c2cccc3ccccc23)c2c(N)ncnc21 is 0

inhibition on RPS6KA5 KD1 (human) (UniProt O75582) for CC(C)N(CCC(=O)c1ccc2ccccc2c1)Cc1ccccc1 is 2

inhibition on RPS6KA5 KD1 (human) (UniProt O75582) for CO[C@@H]1[C@H](N(C)C(=O)c2ccccc2)C[C@H]2O[C@]1(C)n1c3ccccc3c3c4c(c5c6ccccc6n2c5c31)C(=O)NC4 is 66

inhibition on RPS6KA5 KD1 (human) (UniProt O75582) for Cc1ccc(NC(=O)c2cccc(N(C)C)c2)cc1NC(=O)c1ccc(O)cc1 is 0

inhibition on RPS6KA5 KD1 (human) (UniProt O75582) for CC(C)[C@H](CO)Nc1nc(Nc2cc(N)cc(Cl)c2)c2ncn(C(C)C)c2n1 is 18

inhibition on RPS6KA5 KD1 (human) (UniProt O75582) for NC(=O)c1sc(-c2ccsc2)cc1N is 0

inhibition on RPS6KA5 KD1 (human) (UniProt O75582) for CC(C)[C@H](CO)Nc1nc(Nc2cccc(Cl)c2)c2ncn(C(C)C)c2n1 is 2

inhibition on RPS6KA5 KD1 (human) (UniProt O75582) for NC(=O)Nc1sc(-c2ccc(F)cc2)cc1C(N)=O is 0

inhibition on RPS6KA5 KD1 (human) (UniProt O75582) for O=C1Nc2ccc(I)cc2/C1=C/c1cc(Br)c(O)c(Br)c1 is 13

inhibition on RPS6KA5 KD1 (human) (UniProt O75582) for CC[C@@H](CO)Nc1nc(NCc2ccccc2)c2ncn(C(C)C)c2n1 is 0

inhibition on RPS6KA5 KD1 (human) (UniProt O75582) for Cc1[nH]c(/C=C2\C(=O)Nc3ccc(S(=O)(=O)Cc4c(Cl)cccc4Cl)cc32)c(C)c1C(=O)N1CCC[C@@H]1CN1CCCC1 is 22

inhibition on RPS6KA5 KD1 (human) (UniProt O75582) for COc1ccc(Cl)cc1NC(=O)Nc1cc(C)nc2ccccc12 is 3

inhibition on RPS6KA5 KD1 (human) (UniProt O75582) for c1ccc(-c2n[nH]cc2-c2ccnc3ccccc23)nc1 is 0

inhibition on RPS6KA5 KD1 (human) (UniProt O75582) for O=S(=O)(c1cccc2c(Cl)cccc12)N1CCCNCC1 is 0

inhibition on RPS6KA5 KD1 (human) (UniProt O75582) for CN1CC[C@H](c2c(O)cc(O)c3c(=O)cc(-c4ccccc4Cl)oc23)[C@H](O)C1 is 16
